assay name: Extrapolated human dosimetry (OLINDA/EXM, ICRP-89 phantoms)
conditions used: ICRP 89 Adult Male, extrapolated
assay endpoint: Absorbed dose (AD average) Thyroid (mGy/Mbq)
Respond with the bare value in mGy/Mbq.

Recorded Absorbed dose (AD average) Thyroid of N#C[C@@H]1CC(F)(F)CN1C(=O)CNC(=O)c1ccnc2ccc(OCCCCNC(=O)CC[C@H](NC(=O)CCC(C(=O)O)N3CCN(CC(=O)[O-])CCN(CC(=O)[O-])CCN(CC(=O)[O-])CC3)C(=O)NCCCCOc3ccc4nccc(C(=O)NCC(=O)N5CC(F)(F)C[C@H]5C#N)c4c3)cc12.[161Tb+3] (stereo partly shown) [[^161Tb]Tb-DOTAGA.Glu.(FAPI)2] , please.
2.76E-02

Could you share which Absorbed dose (AD average) Thyroid value was measured for N#C[C@@H]1CC(F)(F)CN1C(=O)CNC(=O)c1ccnc2ccc(OCCCCNC(=O)CC[C@H](NC(=O)CN3CCN(CC(=O)[O-])CCN(CC(=O)[O-])CCN(CC(=O)[O-])CC3)C(=O)NCCCCOc3ccc4nccc(C(=O)NCC(=O)N5CC(F)(F)C[C@H]5C#N)c4c3)cc12.[161Tb+3] [[^161Tb]Tb-DO3A.Glu.(FAPI)2] ?
2.81E-02

I'd like to know its Absorbed dose (AD average) Thyroid. The compound in question is N#C[C@@H]1CC(F)(F)CN1C(=O)CNC(=O)c1ccnc2ccc(OCCCCNC(=O)CC[C@H](NC(=O)CN3CCN(CC(=O)[O-])CCN(CC(=O)[O-])CCN(CC(=O)[O-])CC3)C(=O)NCCCCOc3ccc4nccc(C(=O)NCC(=O)N5CC(F)(F)C[C@H]5C#N)c4c3)cc12.[177Lu+3] [[^177Lu]Lu-DO3A.Glu.(FAPI)2]
2.04E-02

I would be grateful if you could share the reported Absorbed dose (AD average) Thyroid for N#C[C@@H]1CC(F)(F)CN1C(=O)CNC(=O)c1ccnc2ccc(OCCCCNC(=O)CC[C@H](NC(=O)CCC(C(=O)O)N3CCN(CC(=O)[O-])CCN(CC(=O)[O-])CCN(CC(=O)[O-])CC3)C(=O)NCCCCOc3ccc4nccc(C(=O)NCC(=O)N5CC(F)(F)C[C@H]5C#N)c4c3)cc12.[177Lu+3] (stereo partly shown) [[^177Lu]Lu-DOTAGA.Glu.(FAPI)2] .
2.02E-02

Data credit: paper PMC12860872
